# System: IL-1β production by mouse peritoneal macrophages
# method.notes: IL-1β production by mouse peritoneal macrophages (ELISA)
# Type: cell-based
# recorded.conditions: dose 0.05 μM; mouse peritoneal macrophages, 48 h, ELISA
Peptide text beside a SMILES is read from it. * marks the point of attachment. X74 = O=C1C=CC(=O)N1c1cccc(CCCCCCCCCCC(=O)*)c1; X49 = O=C1C=CC(=O)N1c1ccccc1CCCCCC(=O)*
Give measured IL-1β for each item. Keep answers brief.
Write the answer as a number in pg/mL, unit excluded.

Lookup: Item under review: C[C@H](NC(=O)CNC(=O)[C@H](CCCNC(=N)N)NC(=O)CCCCCCCCCCc1cccc(N2C(=O)C=CC2=O)c1)C(=O)N[C@@H](CC(=O)O)C(=O)N[C@@H](CCCNC(=N)N)C(=O)N[C@@H](C)C(=O)NCC(=O)NCC(=O)NCC(=O)NCC(=O)N[C@@H](CCCNC(=N)N)C(=O)NCC(=O)N[C@@H](CC(=O)O)C(=O)O [X34] (X74-RGADRAGGGGRGD-OH) . Reported IL-1β?
Found: 767.28

Lookup: Item under review: C[C@H](NC(=O)CNC(=O)[C@H](CCCNC(=N)N)NC(=O)CCCCCc1ccccc1N1C(=O)C=CC1=O)C(=O)N[C@@H](CC(=O)O)C(=O)N[C@@H](CCCNC(=N)N)C(=O)N[C@@H](C)C(=O)NCC(=O)NCC(=O)NCC(=O)NCC(=O)N[C@@H](CCCNC(=N)N)C(=O)NCC(=O)N[C@@H](CC(=O)O)C(=O)O [X17] (X49-RGADRAGGGGRGD-OH) . Reported IL-1β?
Found: 790.35

###

# Test system: choroidal neovascularization
# method.notes: Choroidal neovascularization in rats (laser photocoagulation, FFA)
# Assay type: in vivo
# recorded.conditions: day 28 after administration, total light spot number was 69, 0.05 μM in the vitreous chamber once a day for 1 week, BN rats
Peptide text beside a SMILES is read from it. * marks the point of attachment. X58 = O=C1C=CC(=O)N1c1cccc(CCCCCCCCCCCC(=O)*)c1; X60 = O=C1C=CC(=O)N1c1ccccc1CCCCCCCCCC(=O)*; X66 = O=C1C=CC(=O)N1c1cccc(CCCCCCCC(=O)*)c1; X52 = O=C1C=CC(=O)N1c1ccccc1CCCCCCCC(=O)*; X49 = O=C1C=CC(=O)N1c1ccccc1CCCCCC(=O)*; X61 = O=C1C=CC(=O)N1c1cccc(CCCC(=O)*)c1
property: Leakage Light spot number
Hey, just send me the number, nothing else.

Lookup: Item under review: C[C@H](NC(=O)CNC(=O)[C@H](CCCNC(=N)N)NC(=O)CCCCCCCCCc1ccccc1N1C(=O)C=CC1=O)C(=O)N[C@@H](CC(=O)O)C(=O)N[C@@H](CCCNC(=N)N)C(=O)N[C@@H](C)C(=O)NCC(=O)NCC(=O)NCC(=O)NCC(=O)N[C@@H](CCCNC(=N)N)C(=O)NCC(=O)N[C@@H](CC(=O)O)C(=O)O [X21] (X60-RGADRAGGGGRGD-OH) . Reported Leakage Light spot number?
Found: 28

Lookup: Item under review: C[C@H](NC(=O)CNC(=O)[C@H](CCCNC(=N)N)NC(=O)CCCCCCCc1cccc(N2C(=O)C=CC2=O)c1)C(=O)N[C@@H](CC(=O)O)C(=O)N[C@@H](CCCNC(=N)N)C(=O)N[C@@H](C)C(=O)NCC(=O)NCC(=O)NCC(=O)NCC(=O)N[C@@H](CCCNC(=N)N)C(=O)NCC(=O)N[C@@H](CC(=O)O)C(=O)O [X31] (X66-RGADRAGGGGRGD-OH) . Reported Leakage Light spot number?
Found: 31

Lookup: Item under review: C[C@H](NC(=O)CNC(=O)[C@H](CCCNC(=N)N)NC(=O)CCCc1cccc(N2C(=O)C=CC2=O)c1)C(=O)N[C@@H](CC(=O)O)C(=O)N[C@@H](CCCNC(=N)N)C(=O)N[C@@H](C)C(=O)NCC(=O)NCC(=O)NCC(=O)NCC(=O)N[C@@H](CCCNC(=N)N)C(=O)NCC(=O)N[C@@H](CC(=O)O)C(=O)O [X27] (X61-RGADRAGGGGRGD-OH) . Reported Leakage Light spot number?
Found: 25

Lookup: Item under review: C[C@H](NC(=O)CNC(=O)[C@H](CCCNC(=N)N)NC(=O)CCCCCc1ccccc1N1C(=O)C=CC1=O)C(=O)N[C@@H](CC(=O)O)C(=O)N[C@@H](CCCNC(=N)N)C(=O)N[C@@H](C)C(=O)NCC(=O)NCC(=O)NCC(=O)NCC(=O)N[C@@H](CCCNC(=N)N)C(=O)NCC(=O)N[C@@H](CC(=O)O)C(=O)O [X17] (X49-RGADRAGGGGRGD-OH) . Reported Leakage Light spot number?
Found: 28

Lookup: Item under review: C[C@H](NC(=O)CNC(=O)[C@H](CCCNC(=N)N)NC(=O)CCCCCCCCCCCc1cccc(N2C(=O)C=CC2=O)c1)C(=O)N[C@@H](CC(=O)O)C(=O)N[C@@H](CCCNC(=N)N)C(=O)N[C@@H](C)C(=O)NCC(=O)NCC(=O)NCC(=O)NCC(=O)N[C@@H](CCCNC(=N)N)C(=O)NCC(=O)N[C@@H](CC(=O)O)C(=O)O [X35] (X58-RGADRAGGGGRGD-OH) . Reported Leakage Light spot number?
Found: 31

Lookup: Item under review: C[C@H](NC(=O)CNC(=O)[C@H](CCCNC(=N)N)NC(=O)CCCCCCCc1ccccc1N1C(=O)C=CC1=O)C(=O)N[C@@H](CC(=O)O)C(=O)N[C@@H](CCCNC(=N)N)C(=O)N[C@@H](C)C(=O)NCC(=O)NCC(=O)NCC(=O)NCC(=O)N[C@@H](CCCNC(=N)N)C(=O)NCC(=O)N[C@@H](CC(=O)O)C(=O)O [X19] (X52-RGADRAGGGGRGD-OH) . Reported Leakage Light spot number?
Found: 31
